Catalogue of pEC50 readings, one per entry.
System Name: T1, CD73 on the surface of human tumor cells (human, UniProt P21589 27-549)
T1 chain: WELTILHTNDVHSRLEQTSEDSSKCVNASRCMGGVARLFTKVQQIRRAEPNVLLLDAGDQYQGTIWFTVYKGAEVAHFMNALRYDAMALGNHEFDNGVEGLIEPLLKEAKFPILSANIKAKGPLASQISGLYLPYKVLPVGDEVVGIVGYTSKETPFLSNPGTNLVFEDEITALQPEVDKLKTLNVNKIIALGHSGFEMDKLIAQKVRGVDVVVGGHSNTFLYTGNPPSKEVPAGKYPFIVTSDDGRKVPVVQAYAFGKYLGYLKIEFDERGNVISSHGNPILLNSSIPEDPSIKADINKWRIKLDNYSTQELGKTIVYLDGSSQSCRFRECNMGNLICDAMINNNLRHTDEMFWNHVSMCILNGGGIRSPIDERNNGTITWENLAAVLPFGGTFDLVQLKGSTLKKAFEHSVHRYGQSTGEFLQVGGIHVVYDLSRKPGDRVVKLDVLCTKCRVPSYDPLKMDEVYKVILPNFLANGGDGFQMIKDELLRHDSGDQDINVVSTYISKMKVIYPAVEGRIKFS
Test Description: FACS; MDA-MB-231 cells, left table
pEC50: −log10 of the molar value.

Binder	pEC50
Hu002c-7 (antibody, V domains shown) VH: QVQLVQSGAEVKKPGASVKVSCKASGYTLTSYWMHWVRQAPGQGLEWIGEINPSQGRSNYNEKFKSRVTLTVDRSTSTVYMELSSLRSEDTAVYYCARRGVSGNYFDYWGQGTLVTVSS VL: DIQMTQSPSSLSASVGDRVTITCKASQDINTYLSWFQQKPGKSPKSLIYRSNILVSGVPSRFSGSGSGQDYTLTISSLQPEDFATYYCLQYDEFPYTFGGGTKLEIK	9.18
Hu002c-3 (antibody, V domains shown) VH: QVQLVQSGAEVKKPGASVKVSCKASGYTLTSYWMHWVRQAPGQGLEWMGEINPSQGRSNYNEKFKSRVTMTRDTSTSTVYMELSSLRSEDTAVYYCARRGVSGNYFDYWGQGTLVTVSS VL: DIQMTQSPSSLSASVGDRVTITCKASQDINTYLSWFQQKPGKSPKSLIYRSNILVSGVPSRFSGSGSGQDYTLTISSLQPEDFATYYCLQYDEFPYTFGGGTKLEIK	9.13
